Test system: Mycobacterium tuberculosis Erdman (autoluminescent)
Experiment: Einf, fitted maximum growth inhibition of combination (fraction); higher = stronger maximal inhibition
Details: in vitro model: cholesterol-high 0.2 mM; time point: terminal (~4-5 doublings, model-specific)
Kindly state Einf for each of the entries shown.

Field Einf (entry CC[C@@H](CO)NCCN[C@@H](CC)CO [ethambutol] + NC(=O)c1cnccn1 [pyrazinamide] ) reads 0.999

Field Einf (entry COc1c(N2C[C@@H]3CCCN[C@@H]3C2)c(F)cc2c(=O)c(C(=O)O)cn(C3CC3)c12 [moxifloxacin] + O=[N+]([O-])c1cn2c(n1)OC[C@@H](OCc1ccc(OC(F)(F)F)cc1)C2 ) reads 1

Field Einf (entry NNC(=O)c1ccncc1 [isoniazid] + CC(=O)NC[C@H]1CN(c2ccc(N3CCOCC3)c(F)c2)C(=O)O1 ) reads 1

Field Einf (entry COc1nc2ccc(Br)cc2cc1[C@@H](c1ccccc1)[C@@](O)(CCN(C)C)c1cccc2ccccc12 [bedaquiline] + O=[N+]([O-])c1cn2c(n1)OC[C@@H](OCc1ccc(OC(F)(F)F)cc1)C2 [pretomanid] ) reads 0.991

Field Einf (entry COc1nc2ccc(Br)cc2cc1[C@@H](c1ccccc1)[C@@](O)(CCN(C)C)c1cccc2ccccc12 [bedaquiline] + CC(C)/N=c1\cc2n(-c3ccc(Cl)cc3)c3ccccc3nc-2cc1Nc1ccc(Cl)cc1 [clofazimine] ) reads 0.997

Field Einf (entry NC(=O)c1cnccn1 [pyrazinamide] + CO[C@H]1/C=C/O[C@@]2(C)Oc3c(C)c(O)c4c(O)c(c(/C=N/N5CCN(C)CC5)c(O)c4c3C2=O)NC(=O)/C(C)=C\C=C\[C@H](C)[C@H](O)[C@@H](C)[C@@H](O)[C@@H](C)[C@H](OC(C)=O)[C@@H]1C ) reads 1

Field Einf (entry CC[C@@H](CO)NCCN[C@@H](CC)CO [ethambutol] + CO[C@H]1/C=C/O[C@@]2(C)Oc3c(C)c(O)c4c(O)c(c(/C=N/N5CCN(C6CCCC6)CC5)c(O)c4c3C2=O)NC(=O)/C(C)=C\C=C\[C@H](C)[C@H](O)[C@@H](C)[C@@H](O)[C@@H](C)[C@H](OC(C)=O)[C@@H]1C [rifapentine] ) reads 1

Field Einf (entry CC[C@@H](CO)NCCN[C@@H](CC)CO [ethambutol] + O=[N+]([O-])c1cn2c(n1)OC[C@@H](OCc1ccc(OC(F)(F)F)cc1)C2 [pretomanid] ) reads 0.99

Field Einf (entry CC(C)/N=c1\cc2n(-c3ccc(Cl)cc3)c3ccccc3nc-2cc1Nc1ccc(Cl)cc1 [clofazimine] + COc1c(N2C[C@@H]3CCCN[C@@H]3C2)c(F)cc2c(=O)c(C(=O)O)cn(C3CC3)c12 ) reads 1

Data origin: the supplement of paper PMC8617591
